- Test system: Plasmodium berghei
- protocol.details: Antimalarial activity against Plasmodium berghei in mice (Mus musculus)
- Assay type: functional, organism-based
Exercise: state measured IC50 for each of the compounds provided.
# number only, unit nM dropped from output

query: Which IC50 reading was recorded for the compound C[C@@H]1CC[C@H]2[C@@H](C)C(=O)O[C@@H]3O[C@@]4(C)CC[C@@H]1[C@]32OO4 [ARTEMISININ] ?
result: 9.4

query: What do we get for `Fc1ccc([C@]23CC[C@H]4CCCC[C@@]4(OO2)[C@H](OCc2ccccc2)O3)cc1` ?
result: 31

query: Next entry: `c1ccc([C@@]23CC[C@H]4CCC[C@H]5CCO[C@H](O2)[C@@]45OO3)cc1`
result: 1.3

Reference source for all entries: ChEMBL document CHEMBL1135757
